Record type: pKi measurement. Applies to: human CB2Rs (hCB2Rs) stably expressed in CHO cells (Homo sapiens, UniProt P34972)
Notebook: values listed as pKi are -log10 of the concentration (mol/L).

Below: 2 compounds and their reported pKi.
compound: CC(C)C=Cc1c(O)cc(/C=C/c2ccc(O)c(O)c2)cc1O
pKi: 4.90

compound: CC(C)C=Cc1c(O)cc(/C=C/c2ccc(O)cc2)cc1O
pKi: 4.95

Endpoint output: pKi of Oc1cc(O)cc(/C=C/c2ccc(O)c(O)c2)c1 [tPice, trans 3,5,3′,4′-tetrahydroxystilbene, reference compound] . Value?
3.94

* * *

Measurement record for mouse brain CB1Rs (mCB1Rs) (Mus musculus); quantity recorded: Ki.
Response body: numeric value in µM, unit text excluded.

Enter reported Ki observed with mouse brain CB1Rs (mCB1Rs) (Mus musculus) for CC(C)C=Cc1c(O)cc(/C=C/c2ccc(O)c(O)c2)cc1O
5.6

* * *

- measured.target: mouse brain CB1Rs (mCB1Rs) (Mus musculus, UniProt P47746)
- Sequence (P47746 whole entry): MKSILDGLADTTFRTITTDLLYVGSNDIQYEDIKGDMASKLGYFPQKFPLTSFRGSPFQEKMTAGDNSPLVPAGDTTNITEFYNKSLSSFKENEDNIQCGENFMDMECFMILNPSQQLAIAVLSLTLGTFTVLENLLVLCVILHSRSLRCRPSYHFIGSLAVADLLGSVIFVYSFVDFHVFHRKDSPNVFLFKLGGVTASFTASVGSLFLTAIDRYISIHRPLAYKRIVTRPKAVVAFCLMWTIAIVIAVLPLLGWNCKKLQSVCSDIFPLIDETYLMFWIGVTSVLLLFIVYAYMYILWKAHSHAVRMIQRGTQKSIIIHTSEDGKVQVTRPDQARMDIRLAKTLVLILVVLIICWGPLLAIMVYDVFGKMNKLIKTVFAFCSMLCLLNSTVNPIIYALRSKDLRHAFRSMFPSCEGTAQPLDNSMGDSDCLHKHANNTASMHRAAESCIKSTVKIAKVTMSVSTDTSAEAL
endpoint: Ki (µM)
Report the value in µM with no unit label.

So what's the measured Ki for this one? Oc1ccc(/C=C/c2cc(O)cc(O)c2)cc1 [tRes, trans-3,5,4′-trihydroxystilbene, reference compound]
14.3

Which Ki is reported for this compound? Oc1cc(O)cc(/C=C/c2ccc(O)c(O)c2)c1 [tPice, trans 3,5,3′,4′-tetrahydroxystilbene, reference compound]
11.7

GET /values?readout=Ki&item= CC(C)C=Cc1c(O)cc(/C=C/c2ccc(O)cc2)cc1O
17.5
